procedureSummary: clinical
conditionDetails: human, in vivo, 2.4 mg, AUC0-[…] (second mention, after AUC0-[…])

molecule | AUC(0-t)
CN(C)CCC=C1c2ccccc2C=Cc2ccccc21 [cyclobenzaprine] | ~8.81 ng·h/mL

====

procedureSummary: clinical
conditionDetails: human, in vivo, 2.4 mg, AUC0-1 h
measurementType: AUC(0-t)

compound | recordedMeasurement
CN(C)CCC=C1c2ccccc2C=Cc2ccccc21 [cyclobenzaprine] | ~0.61 ng·h/mL

====

procedureSummary: in vivo
conditionDetails: female, beagle, dog, iv, 1.79 mg, AUC0-∞h
measurementType: AUC(0-inf) (ng·h/mL)

molecule | recordedMeasurement
CN(C)CCC=C1c2ccccc2C=Cc2ccccc21 [cyclobenzaprine] | 44.9

====

procedureSummary: in vivo
conditionDetails: female, beagle, dog, iv, 0.14 mg/kg, Cyclobenzaprine plasma concentration
Structures can show the parent of a compound that is named as a salt.

compound | readoutUnit | concentration at 2 h
CN(C)CCC=C1c2ccccc2C=Cc2ccccc21 [cyclobenzaprine HCl] | ng/mL | 6.5

====

Collected IC50 values appear next to each entry.
targetUnderTest: 5-HT2A (Homo sapiens)
Construct: expressed in transfected cells
Sequence (P28223 whole entry): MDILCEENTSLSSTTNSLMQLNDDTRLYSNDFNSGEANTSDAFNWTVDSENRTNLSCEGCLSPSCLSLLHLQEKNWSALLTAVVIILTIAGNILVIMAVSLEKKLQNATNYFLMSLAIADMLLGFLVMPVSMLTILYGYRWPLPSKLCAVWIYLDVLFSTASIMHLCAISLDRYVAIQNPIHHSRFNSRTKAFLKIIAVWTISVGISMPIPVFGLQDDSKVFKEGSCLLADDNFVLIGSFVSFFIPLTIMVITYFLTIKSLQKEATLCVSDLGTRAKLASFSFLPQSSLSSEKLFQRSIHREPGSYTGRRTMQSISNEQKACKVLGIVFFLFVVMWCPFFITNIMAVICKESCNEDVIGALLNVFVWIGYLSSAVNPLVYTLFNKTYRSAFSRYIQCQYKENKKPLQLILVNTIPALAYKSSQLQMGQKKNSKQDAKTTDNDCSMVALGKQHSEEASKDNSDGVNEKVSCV
procedureSummary: G-protein-independent signal transduction, β-arrestin signaling
Format: cell-based
conditionDetails: β-arrestin signaling, read-out: IC50, functional antagonist
measurementType: IC50 (nM)

molecularString | targetUnderTest | recordedMeasurement
CNCCC=C1c2ccccc2C=Cc2ccccc21 | 5-HT2A (Homo sapiens) | 181
CN(C)CCC=C1c2ccccc2C=Cc2ccccc21 | 5-HT2A (Homo sapiens) | 99

====

procedureSummary: in vivo
conditionDetails: female, beagle, dog, iv, 0.14 mg/kg, AUCinf
Structures can show the parent of a compound that is named as a salt.

compound | AUC(0-inf)
CN(C)CCC=C1c2ccccc2C=Cc2ccccc21 [cyclobenzaprine HCl] | 44.9 ng·h/mL

====

targetUnderTest: adrenergic alpha-2A receptor (Homo sapiens, UniProt P08913)
Sequence (P08913 whole entry): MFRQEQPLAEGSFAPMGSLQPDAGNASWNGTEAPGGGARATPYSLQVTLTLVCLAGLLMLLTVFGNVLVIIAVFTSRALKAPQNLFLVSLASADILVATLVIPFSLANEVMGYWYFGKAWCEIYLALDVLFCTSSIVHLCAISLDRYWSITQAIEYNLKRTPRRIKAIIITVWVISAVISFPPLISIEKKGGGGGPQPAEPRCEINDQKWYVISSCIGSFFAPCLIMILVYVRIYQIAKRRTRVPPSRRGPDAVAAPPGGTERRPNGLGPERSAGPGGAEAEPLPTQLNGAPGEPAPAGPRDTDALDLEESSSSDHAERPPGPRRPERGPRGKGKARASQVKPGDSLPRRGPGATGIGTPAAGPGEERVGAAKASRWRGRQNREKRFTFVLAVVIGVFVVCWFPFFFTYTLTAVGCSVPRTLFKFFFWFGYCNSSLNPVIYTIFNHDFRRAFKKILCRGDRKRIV
procedureSummary: Functional antagonism, ligand-induced intracellular calcium mobilization
conditionDetails: read-out: IC50, functional antagonist
pIC50: −log10 of the molar value.

molecularString | pIC50
CN(C)CCC=C1c2ccccc2C=Cc2ccccc21 | 5.37
CNCCC=C1c2ccccc2C=Cc2ccccc21 | 5.19

====

targetUnderTest: muscarinic M1 receptor (Homo sapiens)
Sequence (P11229 1-460): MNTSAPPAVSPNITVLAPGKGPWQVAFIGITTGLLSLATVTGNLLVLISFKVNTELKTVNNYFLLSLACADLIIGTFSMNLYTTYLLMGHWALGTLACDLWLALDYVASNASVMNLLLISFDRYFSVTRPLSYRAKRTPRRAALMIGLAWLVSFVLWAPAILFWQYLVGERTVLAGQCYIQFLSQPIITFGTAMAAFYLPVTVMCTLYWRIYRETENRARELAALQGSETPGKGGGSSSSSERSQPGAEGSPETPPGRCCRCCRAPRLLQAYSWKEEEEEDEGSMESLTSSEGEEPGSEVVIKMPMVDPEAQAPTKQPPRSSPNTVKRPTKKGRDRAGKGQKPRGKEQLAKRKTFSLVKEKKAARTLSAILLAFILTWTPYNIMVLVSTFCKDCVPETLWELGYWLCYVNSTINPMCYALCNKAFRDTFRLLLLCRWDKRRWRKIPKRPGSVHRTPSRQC
measurementType: Ki (nM)

molecularString | measurementType | readoutUnit | recordedMeasurement
CN(C)CCC=C1c2ccccc2C=Cc2ccccc21 | Ki | nM | 7.9
CNCCC=C1c2ccccc2C=Cc2ccccc21 | Ki | nM | 30

The reported measurements were obtained from patent US20260232578A1.
